- experimental system: c-Src SH2
- assay comment: SH2 binding enrichment of the phosphorylated peptide, bacterial display (enrichment ratio); higher = better substrate or ligand; peptides without Tyr show the background
outcome measure: SH2 binding enrichment
Give your answer as a number; write no unit.

Here's what some known entries look like.
NHFKIYNLCAE [PTEN_Y68_YF]
0.974
DAGTDYVGISR [FREM2_Y2061]
0.481
SVTCTYSPAVN [TP53_Y126_L130V]
0.369
SLQFEYVHFGG [CDC14A_Y591_S589F_YF]
0.643
DTYDPYLDIAL [USP36_Y268_V271I]
0.451

## Task Provide value of SH2 binding enrichment for this record tested with c-Src SH2: ALEHKYWALGQ [MAP1A_Y1555_Q1553H]
## Result 14.8

## Task Provide value of SH2 binding enrichment for this record tested with c-Src SH2: YSGDCYRIQGR [DDR2_Y741_Y740C]
## Result 0.615

## Task Provide value of SH2 binding enrichment for this record tested with c-Src SH2: AKIDGYIISYR
## Result 0.685

## Task Provide value of SH2 binding enrichment for this record tested with c-Src SH2: GSIQQYTFKQE [PRG4_Y1271_I1272T_YF]
## Result 0.53

## Task Provide value of SH2 binding enrichment for this record tested with c-Src SH2: SFPSYYTSHVQ [NEFL_Y443]
## Result 0.877

----------
- experimental system: Hck (UniProt P08631)
- Sequence (P08631 whole entry, looked up): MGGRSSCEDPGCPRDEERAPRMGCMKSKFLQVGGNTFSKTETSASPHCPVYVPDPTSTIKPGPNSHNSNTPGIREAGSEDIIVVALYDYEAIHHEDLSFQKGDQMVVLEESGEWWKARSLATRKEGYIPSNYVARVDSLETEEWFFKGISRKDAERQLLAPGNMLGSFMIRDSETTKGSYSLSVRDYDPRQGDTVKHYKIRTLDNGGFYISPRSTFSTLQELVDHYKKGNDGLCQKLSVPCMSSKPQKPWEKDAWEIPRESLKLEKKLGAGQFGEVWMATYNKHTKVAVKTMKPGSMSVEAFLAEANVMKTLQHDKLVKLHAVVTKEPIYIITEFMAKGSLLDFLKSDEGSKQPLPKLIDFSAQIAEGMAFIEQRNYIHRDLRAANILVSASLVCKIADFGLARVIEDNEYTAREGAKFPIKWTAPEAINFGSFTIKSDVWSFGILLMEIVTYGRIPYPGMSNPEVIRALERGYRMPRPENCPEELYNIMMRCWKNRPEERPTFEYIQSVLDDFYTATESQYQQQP
- assay comment: phosphorylation enrichment, bacterial display (enrichment ratio); higher = better substrate or ligand; peptides without Tyr show the background
Outcome: Satisfied for phosphorylation enrichment of at least 0.4; Not satisfied for anything lower.

VDTFWYKLLKR [EPM2A_Y86_F88L]
Not satisfied
LFHENYNAGTF [CFI_Y421_I416L_YF]
Satisfied
HMEAVYIDIAD [PITPNA_Y140_V136M]
Satisfied

Query sequence follows.
## Task Check if phosphorylation enrichment >= 0.4 (inclusive). Item: PKKKQYTSIHH [APP_Y728_L723P]
## Result Satisfied

----------
- experimental system: Hck (UniProt P08631)
- assay comment: phosphorylation enrichment, bacterial display (enrichment ratio); higher = better substrate or ligand; peptides without Tyr show the background
Outcome: 1.0 for phosphorylation enrichment of at least 0.6; 0.0 for anything lower.

Consider the worked cases shown below.
GLDGSYLPRDS [SH2D1A_Y29_L31P]
0.0
EEGNPYYSSAR [MCCC2_Y520]
1.0

## Task Check if phosphorylation enrichment >= 0.6 (inclusive). Item: YIPFRYPKEFQ [IDS_Y234_H229Y]
## Result 1.0

## Task Check if phosphorylation enrichment >= 0.6 (inclusive). Item: TWEKPYECVQC [ZNF24_Y335_G331W]
## Result 1.0

## Task Check if phosphorylation enrichment >= 0.6 (inclusive). Item: DFPMGYPSFLA [TBCK_Y153_I151M_YF]
## Result 0.0

## Task Check if phosphorylation enrichment >= 0.6 (inclusive). Item: EFKKHYGYSLY [ANXA3_Y295]
## Result 1.0

## Task Check if phosphorylation enrichment >= 0.6 (inclusive). Item: SGSIHYSCVPR [GLB1_Y57_R59C]
## Result 0.0

----------
- experimental system: Grb2 SH2 (UniProt P62993)
- Sequence (P62993 whole entry, looked up): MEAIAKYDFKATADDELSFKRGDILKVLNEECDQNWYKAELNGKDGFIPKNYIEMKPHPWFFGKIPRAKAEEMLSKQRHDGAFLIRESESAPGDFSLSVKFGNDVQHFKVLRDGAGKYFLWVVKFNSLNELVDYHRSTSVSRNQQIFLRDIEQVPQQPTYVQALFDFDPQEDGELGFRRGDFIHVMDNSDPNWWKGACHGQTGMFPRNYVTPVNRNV
- assay comment: SH2 binding enrichment of the phosphorylated peptide, bacterial display (enrichment ratio); higher = better substrate or ligand; peptides without Tyr show the background
outcome measure: SH2 binding enrichment

RAILLYEYVGK [NATD1_Y45_V42I]
1.56
IFGVSYGEFRF [CFTR_Y512_D513G_YF]
1.06
AKAEICEMRPL [COX10_Y97_Y97C]
1.01

Attention now turns to another entry.
## Task Entry FRASFYRKGGC [ALK_Y1283_YF] has what SH2 binding enrichment?
## Result 0.616

----------
- experimental system: FGFR1 (UniProt P11362)
- Sequence (P11362 whole entry, looked up): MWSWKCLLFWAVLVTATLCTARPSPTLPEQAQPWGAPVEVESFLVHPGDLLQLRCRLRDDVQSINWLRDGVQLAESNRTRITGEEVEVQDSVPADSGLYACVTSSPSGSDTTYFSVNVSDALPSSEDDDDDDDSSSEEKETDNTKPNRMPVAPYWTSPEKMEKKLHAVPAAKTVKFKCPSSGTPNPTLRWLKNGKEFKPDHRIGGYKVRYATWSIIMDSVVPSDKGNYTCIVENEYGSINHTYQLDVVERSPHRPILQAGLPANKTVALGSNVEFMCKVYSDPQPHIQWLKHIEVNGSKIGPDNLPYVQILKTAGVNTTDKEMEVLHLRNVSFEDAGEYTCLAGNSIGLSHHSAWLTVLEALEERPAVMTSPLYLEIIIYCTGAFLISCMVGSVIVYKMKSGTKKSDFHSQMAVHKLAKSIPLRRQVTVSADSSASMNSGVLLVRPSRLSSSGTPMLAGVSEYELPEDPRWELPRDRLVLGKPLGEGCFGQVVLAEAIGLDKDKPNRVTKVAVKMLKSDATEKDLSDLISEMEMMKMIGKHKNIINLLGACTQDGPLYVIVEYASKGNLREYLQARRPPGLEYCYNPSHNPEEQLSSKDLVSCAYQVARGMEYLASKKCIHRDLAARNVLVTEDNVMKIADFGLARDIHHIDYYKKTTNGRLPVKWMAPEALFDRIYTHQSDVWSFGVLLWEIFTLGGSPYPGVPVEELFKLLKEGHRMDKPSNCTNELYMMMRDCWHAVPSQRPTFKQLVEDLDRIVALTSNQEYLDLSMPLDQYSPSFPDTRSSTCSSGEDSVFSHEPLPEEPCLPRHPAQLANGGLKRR
- assay comment: phosphorylation enrichment, bacterial display (enrichment ratio); higher = better substrate or ligand; peptides without Tyr show the background
outcome measure: phosphorylation enrichment
Give your answer as a number; write no unit.

GSRGKYFSGFR [ATM_Y332_S333F]
0.415
DPAFGYEDFTR [SESN2_Y323_T320A]
0.569
PTDCVYVMPTV [MYO7A_Y1668_S1666C]
5
CVVVPYEPPEV [TP53_Y220_S215C]
0.574
HPAGNYSLSSV [ARFGAP3_Y473_Q468H]
0.562

Attention now turns to another entry.
## Task Entry CTTIHYNFVCN [TP53_Y234_M237V_YF] has what phosphorylation enrichment?
## Result 0.694

----------
- experimental system: Fes (UniProt P07332)
- Sequence (P07332 whole entry, looked up): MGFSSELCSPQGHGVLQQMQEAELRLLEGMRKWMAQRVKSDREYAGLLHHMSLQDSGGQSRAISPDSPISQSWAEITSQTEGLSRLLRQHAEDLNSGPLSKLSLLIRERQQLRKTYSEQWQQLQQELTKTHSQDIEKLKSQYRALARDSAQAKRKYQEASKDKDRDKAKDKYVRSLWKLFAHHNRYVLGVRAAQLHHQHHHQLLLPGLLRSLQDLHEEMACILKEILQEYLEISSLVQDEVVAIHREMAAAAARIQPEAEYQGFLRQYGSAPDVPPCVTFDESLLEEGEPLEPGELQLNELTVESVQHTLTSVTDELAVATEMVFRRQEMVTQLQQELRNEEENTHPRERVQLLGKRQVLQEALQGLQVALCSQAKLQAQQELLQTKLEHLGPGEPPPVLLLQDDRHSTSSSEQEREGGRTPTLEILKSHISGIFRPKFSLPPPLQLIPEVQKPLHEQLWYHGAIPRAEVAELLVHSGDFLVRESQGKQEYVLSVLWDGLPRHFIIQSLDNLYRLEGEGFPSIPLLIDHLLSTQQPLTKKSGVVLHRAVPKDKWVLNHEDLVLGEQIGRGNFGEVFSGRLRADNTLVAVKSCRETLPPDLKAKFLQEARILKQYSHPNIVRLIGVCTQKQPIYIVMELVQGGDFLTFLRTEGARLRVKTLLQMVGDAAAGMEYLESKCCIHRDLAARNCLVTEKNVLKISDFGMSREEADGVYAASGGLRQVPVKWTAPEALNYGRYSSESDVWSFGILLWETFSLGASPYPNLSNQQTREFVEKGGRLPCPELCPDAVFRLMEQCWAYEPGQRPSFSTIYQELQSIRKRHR
- assay comment: phosphorylation enrichment, bacterial display (enrichment ratio); higher = better substrate or ligand; peptides without Tyr show the background
Outcome: class 1 for phosphorylation enrichment of at least 1; class 0 for anything lower.

Consider the worked cases shown below.
LLVVLYKYRCY [PSEN1_Y154]
class 1
PEADKYHLTFA [FGG_Y300_R301H_YF]
class 1
LTFDEYRNNSQ [ANXA3_Y216_I219N]
class 1
FVSIVCNDSGE [TSC2_Y1650_Y1650C]
class 1
CEQELYSQLVY [WAS_Y102_W97C]
class 1
ELAKYYKLHHI [AK7_Y391_N389K]
class 0
ECKLLYSRKEG [PTPN11_Y263]
class 0
GRVLGYGAFRK [FLT4_Y853_G857R]
class 0
SEELHYFVQNH [UQCRC2_Y207]
class 1
SLFQFYFQQKG [CHKB_Y381_R377L]
class 1

Query sequence follows.
## Task Check if phosphorylation enrichment >= 1 (inclusive). Item: HPAGNYSLSSV [ARFGAP3_Y473_Q468H]
## Result class 0

----------
Reported phosphorylation enrichment values for a set of sequences
- Tested on: c-Abl (mouse)
- assay comment: phosphorylation enrichment, bacterial display (enrichment ratio); higher = better substrate or ligand; peptides without Tyr show the background

Here's what some known entries look like.
VGGRIYIDDAL [PKLR_Y218_G222A]
0.737
PSRKDYETYQS [CTNND2_Y1154_P1159S]
0.729
VPLLEYFRDIF [CDAN1_Y712_YF]
1.06
RTMPDYTSFNT [EPHB2_Y912_I909M]
0.618
RQQEDYLLFKQ [RARRES1_Y159_YF]
0.924
FVSIVCNDSGE [TSC2_Y1650_Y1650C]
0.767
EGDGVYTLNNE [HP_Y125]
0.817
QTEAPYRFIFM [PTPN11_Y511_Q510P_YF]
1.34

## Task Entry DPNQQYFIAMD [TBX15_Y159_H156N_YF] has what phosphorylation enrichment?
## Result 0.672

## Task Entry LNPDGYKKAFE [CPXM2_Y427_E428K_YF] has what phosphorylation enrichment?
## Result 1.28

## Task Entry CASQLCPRHKH [DCTN4_Y263_Y263C] has what phosphorylation enrichment?
## Result 0.451

## Task Entry FFFDLYGGEKF [PTPN11_Y66_D61Y_YF] has what phosphorylation enrichment?
## Result 0.665

## Task Entry LGGAMYYLEAD [PKHD1_Y452_E457D] has what phosphorylation enrichment?
## Result 0.956

----------
- experimental system: Grb2 SH2 (UniProt P62993)
- assay comment: SH2 binding enrichment of the phosphorylated peptide, bacterial display (enrichment ratio); higher = better substrate or ligand; peptides without Tyr show the background
outcome measure: SH2 binding enrichment
Give your answer as a number; write no unit.

Here's what some known entries look like.
FFTEEYVRAHP [DOCK2_Y1555_D1558A]
0.728
LGRKLYSIATP [ABHD12_Y345_A349T]
1.11
YIPFRYPKEFQ [IDS_Y234_H229Y]
0.768
NARGLYFKLHN [GATA2_Y376_C373R_YF]
0.988
VASSLYDIFAR [GLB1_Y294_L297F]
1.02
KLMTEYKKRKQ [ARFGEF3_Y2029]
1.27
LWKWRYEELKE [CCDC102B_Y299_K298R]
1.29
DKNSSYFADWF [TUBB8_Y340_L345F]
0.984
ISRASYFRKGG [ALK_Y1282_Y1278S_YF]
0.755
ENKGVYVPMSG [IVD_Y277_L279P]
0.734

## Task Entry WVYNHYRWIIW [BRCA2_Y2624] has what SH2 binding enrichment?
## Result 1.29

## Task Entry AKFPSYEKNKK [FOXL2_Y91_F90S] has what SH2 binding enrichment?
## Result 0.907

## Task Entry LGRKLYSIAAP [ABHD12_Y345] has what SH2 binding enrichment?
## Result 0.788

## Task Entry MLNTNYHLPPS [MT-ATP8_Y33] has what SH2 binding enrichment?
## Result 1

## Task Entry FSNPAYFVLEG [INPPL1_Y986_N982S_YF] has what SH2 binding enrichment?
## Result 0.928

## Task Entry STEEQYRICQV [EFHC1_Y115_R118C] has what SH2 binding enrichment?
## Result 0.695
